# Test system: hTERT-HMEC;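 note: secreted proteins added to cultured cells, EdU pulse at the end, nuclei found by Hoechst imaging, EdU status from nuclear versus surrounding ring intensity ratio, PBS as neutral control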
# ASSAY NOTES: percentage of EdU-negative (G0-arrested) nuclei per well, 72 h; higher = more G0 arrest
# CONDITION PARAMETERS: protein concentration 0.0225 µM; reference: sequence is the full UniProt precursor, the tested protein was the secreted form or ectodomain
PROPERTY: percentage of EdU-negative

MRLSWFRVLTVLSICLSAVATATGAEGKRKLQIGVKKRVDHCPIKSRKGDVLHMHYTGKLEDGTEFDSSLPQNQPFVFSLGTGQVIKGWDQGLLGMCEGEKRKLVIPSELGYGERGAPPKIPGGATLVFEVELLKIERRTEL: 4.9%
MASPGCLWLLAVALLPWTCASRALQHLDPPAPLPLVIWHGMGDSCCNPLSMGAIKKMVEKKIPGIYVLSLEIGKTLMEDVENSFFLNVNSQVTTVCQALAKDPKLQQGYNAMGFSQGGQFLRAVAQRCPSPPMINLISVGGQHQGVFGLPRCPGESSHICDFIRKTLNAGAYSKVVQERLVQAEYWHDPIKEDVYRNHSIFLADINQERGINESYKKNLMALKKFVMVKFLNDSIVDPVDSEWFGFYRSGQAKETIPLQETSLYTQDRLGLKEMDNAGQLVFLATEGDHLQLSEEWFYAHIIPFLG: 4.49%
MPMASPQTLVLYLLVLAVTEAWGQEAVIPGCHLHPFNVTVRSDRQGTCQGSHVAQACVGHCESSAFPSRYSVLVASGYRHNITSVSQCCTISGLKKVKVQLQCVGSRREELEIFTARACQCDMCRLSRY [Q96T91]: 6.3%

Let us examine a further case.
In: Determine its reported percentage of EdU-negative: `MEKIPVSAFLLLVALSYTLARDTTVKPGAKKDTKDSRPKLPQTLSRGWGDQLIWTQTYEEALYKSKTSNKPLMIIHHLDECPHSQALKKVFAENKEIQKLAEQFVLLNLVYETTDKHLSPDGQYVPRIMFVDPSLTVRADITGRYSNRLYAYEPADTALLLDNMKKALKLLKTEL`
Out: 4.87%

Cited source: the supplement of paper PMC11316812
